Test: solvent given as SMILES
Conditions: in CC#N
PROPERTY_NAME: absorption maximum (nm)
Give just the number in nm; leave the unit off.

Record excerpt, results attached:
# SMILES_CODE, READOUT_UNIT, absorption maximum
measured = [
    ("CCOC(=O)COc1ccc(C(c2c(C)[nH]c3ccccc23)c2c(C)[nH]c3ccccc23)cc1", "nm", 290),
    ("CCOC(=O)c1c2c3c(ccc(F)c3c3cc4ccccc4cc13)N(C)C2=O", "nm", 410),
    ("O=c1c(-c2ccc(O)cc2)coc2cc(O)cc(O)c12", "nm", 360),
    ("O=c1cc(COc2ccc(I)cc2)c2c(ccc3ccccc32)o1", "nm", 348),
    ("COc1cc2c3c(c4cc(OC)c(OC)c(OC)c4c2c(OC)c1OC)=[N+]1C(=C(c2c(C)cc(C)cc2C)c2cc4c5cc(OC)c(OC)c(OC)c5c5c(OC)c(OC)c(OC)cc5c4n2[B-]1(F)F)C=3", "nm", 718),
]

Q: // returns reported absorption maximum for input O=c1[nH]c(=O)n([C@@H]2O[C@H](CO)[C@@H](O)[C@H]2O)cc1-c1cc2ccccc2s1
Result: 321

Q: If you can, please state the reported absorption maximum value of CC1=[N+]2C(=C(c3ccc(N(C)C)cc3)c3ccc(C)n3[B-]2(F)F)C=C1 .
Result: 503

Q: Query: absorption maximum; subject: F[B-]1(F)n2c(cc(-c3ccccc3)c2-c2ccccc2)C(c2ccccc2)=C2C=C(c3ccccc3)C(c3ccccc3)=[N+]21
Result: 576

Q: Recorded absorption maximum of CC(C)[Si]1(C(C)C)c2ccccc2-c2ccc(N(C)C)cc21 , please.
Result: 321

* * *

Assay: solvent given as SMILES
Settings: in CS(C)=O
PROPERTY_NAME: absorption maximum (nm)
# number only, unit nm dropped from output

# COMPOUND, READOUT_UNIT, absorption maximum
measured = [
    ("CCN1c2ccc(/C=N/Nc3ccccn3)cc2Sc2cc(-c3cccc4ccccc34)ccc21", "nm", 383),
    ("COC(=O)C(Cc1ccc2oc(-c3ccc4c(c3)c3ccccc3n4-c3ccccc3)nc2c1)NC(=O)OC(C)(C)C (configuration not stated)", "nm", 332.6),
    ("CCN(CC)c1ccc2c(c1)oc(=O)c1c(=O)oc3cc(C#Cc4ccc(C#N)cc4)ccc3c12", "nm", 481),
    ("CN(C)c1ccc(C(=O)c2ccccc2)cc1", "nm", 350),
    ("CN(C)c1ccc2cc(C3=[O+][B-](F)(F)OC(c4ccccc4)=C3)ccc2c1", "nm", 520),
]

Q: Could you tell me which absorption maximum is on file for CCN(CC)c1ccc2cc(/C=C/C(O)=C3\CC/C(=C\c4cc5ccc(N(CC)CC)cc5oc4=O)C3=O)c(=O)oc2c1 ?
Result: 556

Q: Give its absorption maximum value. Item: CCCCOc1ccc2cc(-c3ccc(C)cc3)c(=O)oc2c1
Result: 346

Q: Field request: absorption maximum | item: CC(=O)O[B-]1(OC(C)=O)OC(/C=C/C=C/c2ccccc2)=CC(/C=C/C=C/c2ccccc2)=[O+]1
Result: 478

Q: Please look up its absorption maximum: O=C(N/N=C/c1ccccc1O)c1ccc([N+](=O)[O-])cc1
Result: 342
